Study Target: KRAS G12V (Homo sapiens, UniProt P01116+P62937, G12V)
Sequence (P01116 1-169 isoform P01116-2 G12V limits assumed, one chain of several): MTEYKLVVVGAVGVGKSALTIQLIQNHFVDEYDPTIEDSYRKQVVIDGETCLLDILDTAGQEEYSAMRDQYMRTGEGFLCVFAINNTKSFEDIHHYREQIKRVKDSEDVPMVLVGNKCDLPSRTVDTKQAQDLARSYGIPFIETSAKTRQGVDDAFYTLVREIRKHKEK
Assay Text: Disruption of BRAF RBD interaction with Ras (FRET / MOA assay, with Cyclophilin A)
Format: biochemical
Measurement Parameters: KRAS G12V; read-out: KRAS G12V FRET data IC50
As shown below, each of these molecules has a reported IC50 value.
Readout Name: IC50

| Molecule | Readout Name | Reported |
| --- | --- | --- |
| CCn1c(-c2cccnc2[C@H](C)OC)c2c3cc(ccc31)-c1csc(n1)C[C@H](NC(=O)[C@H](C(C)C)N(C)C(=O)N1C[C@H]3CN(C)C[C@H]31)C(=O)N1CCC[C@H](N1)C(=O)OCC(C)(C)C2 | IC50 | 1 to 10 µM |
| C=CC(=O)N1CC(OC[C@H](C(=O)N[C@H]2Cc3cccc(c3)-c3ccc4c(c3)c(c(-c3cccnc3[C@H](C)OC)n4CC)CC(C)(C)COC(=O)[C@@H]3CCCN(N3)C2=O)C(C)C)C1 (racemic) [Example A483] | IC50 | 1 to 10 µM |
| CCn1c(-c2cccnc2[C@H](C)OC)c2c3cc(ccc31)-c1cc(O)cc(c1)C[C@H](NC(=O)[C@H](C(C)C)N(C)C(=O)C1CC13CCNCC3)C(=O)N1CCC[C@H](N1)C(=O)OCC(C)(C)C2 (stereo partly shown) | IC50 | 0.1 to 1 µM |
| CCn1c(-c2cnccc2COC)c2c3cc(ccc31)-c1cc(O)cc(c1)C[C@H](NC(=O)[C@H](C(C)C)N(C)C(=O)[C@@H]1CCCN(C)C1)C(=O)N1CCC[C@H](N1)C(=O)OCC(C)(C)C2 | IC50 | 1 to 10 µM |

====

Study Target: KRAS G13C (Homo sapiens, UniProt P01116+P62937, G13C)
Sequence (P01116 1-169 isoform P01116-2 G13C limits assumed): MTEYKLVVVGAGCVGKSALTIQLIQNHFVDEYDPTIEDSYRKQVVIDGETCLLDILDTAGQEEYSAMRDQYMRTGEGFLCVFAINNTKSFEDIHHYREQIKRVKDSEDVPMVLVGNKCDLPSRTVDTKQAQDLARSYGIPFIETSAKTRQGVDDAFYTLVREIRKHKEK
Sequence (P62937 whole entry): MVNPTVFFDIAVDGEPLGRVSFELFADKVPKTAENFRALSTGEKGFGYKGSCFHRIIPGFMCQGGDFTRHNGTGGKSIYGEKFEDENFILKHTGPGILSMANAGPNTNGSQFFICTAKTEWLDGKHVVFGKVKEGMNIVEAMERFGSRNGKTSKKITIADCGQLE
Assay Text: Ras-Raf disruption / FRET / MOA assay (BRAF RBD)
Type: biochemical
Measurement Parameters: Ras-Raf disruption, with Cyclophilin A; read-out: KRAS G13C FRET data IC50
pIC50: −log10 of the molar value.
As shown below, each of these molecules has a reported pIC50 value.
Readout Name: pIC50

| Molecule | Readout Name | Reported |
| --- | --- | --- |
| CCn1c(-c2cnccc2COC)c2c3cc(ccc31)-c1cccc(c1)C[C@H](NC(=O)[C@H](C(C)C)N(C)C(=O)CC(C)(C)N=C=Nc1ccc(OC)cc1)C(=O)N1CCC[C@H](N1)C(=O)OCC(C)(C)C2 | pIC50 | < 5.00 |
| CCn1c(-c2cccnc2[C@H](C)OC)c2c3cc(ccc31)-c1cc(O)cc(c1)C[C@H](NC(=O)[C@H](C(C)C)N(C)C(=O)[C@@H]1CCN(C(=O)[C@H]3CN3)[C@@H]1C)C(=O)N1CCC[C@H](N1)C(=O)OCC(C)(C)C2 (atropisomer, axis not shown) | pIC50 | 7.00 to 8.00 |

====

Study Target: KRAS G12C (Homo sapiens, UniProt P01116+P62937, G12C)
Sequence (P01116 1-169 isoform P01116-2 G12C, one chain of several): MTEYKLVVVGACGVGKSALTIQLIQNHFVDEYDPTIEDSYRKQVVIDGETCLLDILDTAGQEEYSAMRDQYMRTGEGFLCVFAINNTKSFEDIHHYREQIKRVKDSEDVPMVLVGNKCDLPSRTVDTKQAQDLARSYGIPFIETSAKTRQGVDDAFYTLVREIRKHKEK
Assay Text: Disruption of BRAF RBD interaction with Ras (FRET / MOA assay, with Cyclophilin A)
Assay type: biochemical
Measurement Parameters: read-out: KRAS G12C FRET data, IC50
As shown below, each of these compounds has a reported IC50 value.
Readout Name: IC50

| Compound | Readout Name | Reported |
| --- | --- | --- |
| CCn1c(-c2cccnc2[C@H](C)OC)c2c3cc(ccc31)-c1csc(n1)C[C@H](NC(=O)[C@H](C(C)C)N(C)C(=O)N1CCC3(CCN(C)CC3)C1)C(=O)N1CCC[C@H](N1)C(=O)OCC(C)(C)C2 (atropisomer, axis not shown) | IC50 | 10 to 100 nM |
| CCn1c(-c2cccnc2[C@H](C)OC)c2c3cc(ccc31)-c1cc(O)cc(c1)C[C@H](NC(=O)[C@H](C(C)C)N(C)C(=O)[C@@H]1OC[C@@H]3CCC[C@@H]31)C(=O)N1CCC[C@H](N1)C(=O)OCC(C)(C)C2 | IC50 | 10 to 100 nM |
| CCn1c(-c2cnccc2COC)c2c3cc(ccc31)-c1cc(O)cc(c1)C[C@H](NC(=O)[C@H](C(C)C)N(C)C(=O)C1C[C@@H]1C)C(=O)N1CCC[C@H](N1)C(=O)OCC(C)(C)C2 (some centres unmarked) | IC50 | 10 to 100 nM |
| CCn1c(-c2cccnc2[C@H](C)OC)c2c3cc(ccc31)-c1csc(n1)C[C@H](NC(=O)[C@H](C(C)C)N(C)C(=O)N1C[C@H](N)[C@@H](F)C1)C(=O)N1CCC[C@H](N1)C(=O)OCC(C)(C)C2 (atropisomer, axis not shown) | IC50 | 10 to 100 nM |
| CCn1c(-c2cccnc2[C@H](C)OC)c2c3cc(ccc31)-c1csc(n1)C[C@H](NC(=O)[C@H](C(C)C)N(C)C(=O)N1CC([C@H](C)OC)C1)C(=O)N1CCC[C@H](N1)C(=O)OCC(C)(C)C2 (atropisomer, axis not shown) | IC50 | 10 to 100 nM |
| CCn1c(-c2cccnc2[C@H](C)OC)c2c3cc(ccc31)-c1csc(n1)C[C@H](NC(=O)[C@H](C(C)C)N(C)C(=O)N1CCOC3(CN(C)C3)C1)C(=O)N1CCC[C@H](N1)C(=O)OCC(C)(C)C2 | IC50 | 100 to 1000 nM |
| CCN(C(=O)N(C)[C@H](C(=O)N[C@H]1Cc2nc(cs2)-c2ccc3c(c2)c(c(-c2cccnc2[C@H](C)OC)n3CC)CC(C)(C)COC(=O)[C@@H]2CCCN(N2)C1=O)C(C)C)C1CC1 | IC50 | 100 to 1000 nM |
| CCn1c(-c2cccnc2[C@H](C)OC)c2c3cc(ccc31)-c1csc(n1)C[C@H](NC(=O)[C@H](C(C)C)N(C)C(=O)N1C3CC1CN(C)C3)C(=O)N1CCC[C@H](N1)C(=O)OCC(C)(C)C2 | IC50 | 100 to 1000 nM |
| CCn1c(-c2cc(N3CCN(C)CC3)cnc2[C@H](C)OC)c2c3cc(ccc31)-c1csc(n1)C[C@H](NC(=O)[C@H](C(C)C)N(C)C(=O)N(C)C)C(=O)N1CCC[C@H](N1)C(=O)OCC(C)(C)C2 (atropisomer, axis not shown) | IC50 | 10 to 100 nM |
| CCn1c(-c2cccnc2[C@H](C)OC)c2c3cc(ccc31)-c1csc(n1)C[C@H](NC(=O)[C@H](C(C)C)N(C)C(=O)N(C)C[C@@H]1CCCN1C)C(=O)N1CCC[C@H](N1)C(=O)OCC(C)(C)C2 | IC50 | 100 to 1000 nM |
| CCn1c(-c2cccnc2[C@H](C)OC)c2c3cc(ccc31)-c1cc(O)cc(c1)C[C@H](NC(=O)[C@H](C(C)C)N(C)C(=O)C1CC13CC3)C(=O)N1CCC[C@H](N1)C(=O)OCC(C)(C)C2 (some centres unmarked) | IC50 | 10 to 100 nM |
| CCn1c(-c2cccnc2[C@H](C)OC)c2c3cc(ccc31)-c1csc(n1)C[C@H](NC(=O)[C@H]1CCCO1)C(=O)N1CCC[C@H](N1)C(=O)OCC(C)(C)C2 (atropisomer, axis not shown) | IC50 | 100 to 1000 nM |
| CCn1c(-c2cccnc2[C@H](C)OC)c2c3cc(ccc31)-c1csc(n1)C[C@H](NC(=O)[C@H](C(C)C)N(C)C(=O)N1C[C@H]3CN(C)C[C@H]31)C(=O)N1CCC[C@H](N1)C(=O)OCC(C)(C)C2 | IC50 | 100 to 1000 nM |
| CCn1c(-c2cccnc2[C@H](C)OC)c2c3cc(ccc31)-c1csc(n1)C[C@H](NC(=O)[C@H](C(C)C)N(C)C(=O)N(C)C1(COC)COC1)C(=O)N1CCC[C@H](N1)C(=O)OCC(C)(C)C2 | IC50 | 100 to 1000 nM |
| CCn1c(-c2cccnc2[C@H](C)OC)c2c3cc(ccc31)-c1csc(n1)C[C@H](NC(=O)[C@H](C(C)C)N(C)C(=O)N1CC3(C1)CS(=O)(=O)CCN3C)C(=O)N1CCC[C@H](N1)C(=O)OCC(C)(C)C2 | IC50 | 1000 to 10000 nM |
| CCn1c(-c2cccnc2[C@H](C)OC)c2c3cc(ccc31)-c1cc(O)cc(c1)C[C@H](NS(=O)(=O)CC1CCC3(CNC3)C1)C(=O)N1CCC[C@H](N1)C(=O)OCC(C)(C)C2 (mixture of isomers) | IC50 | > 10000 nM |
| CCn1c(-c2cccnc2[C@H](C)OC)c2c3cc(ccc31)-c1csc(n1)C[C@H](NC(=O)[C@H](C(C)C)N(C)C(=O)N1CC[C@@]3(CCN(C)C3=O)C1)C(=O)N1CCC[C@H](N1)C(=O)OCC(C)(C)C2 (single isomer, unassigned) | IC50 | 100 to 1000 nM |
